Taken from ChEMBL document CHEMBL1125217.

test system: MT4; test: Concentration which inhibited >95% spread of HIV-1 strain IIIb infection in susceptible MT-4 cell culture; assay type: functional; settings: Homo sapiens, read-out: CIC95
measurement.name: IC95 (nM)
Hi! Could you send only the number? It should be in nM, unit omitted.

Quick one: IC95 for CCc1cc(CCc2nc3c(Cl)ccc(Cl)c3o2)c(O)nc1C ?
100

How about this compound: CCc1cc(NCc2nc3c(C)ccc(C)c3o2)c(O)nc1C
50

How about this compound: CCc1cc(CCc2nc3ccccc3o2)c(O)nc1C
100

How about this compound: CCc1cc(NCc2nc3c(Cl)ccc(Cl)c3o2)c(O)nc1C
50

How about this compound: CC(C)=CCN1Cc2cccc3[nH]c(=S)n(c23)C[C@@H]1C
200

How about this compound: Cc1ccnc2c1NC(=O)c1cccnc1N2C1CC1
100
